B1: JUNB (parent)
chain: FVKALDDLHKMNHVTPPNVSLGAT

Variants of: B1
Assay: protein stability index of a GFP-peptide fusion (GPS, HEK-293T) (PSI 1-6); higher = more stable;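 also: lentivirally expressed fusions sorted by FACS into six bins by GFP to DsRed ratio, PSI derived from sequencing read proportions per bin multiplied by bin number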
Conditions: c terminus: a fixed tail appended
reported property: protein stability index
The answer should be a number; do not append a unit.

Query block: Data request, read-out protein stability index, for FVKALDDLHKMNHVTPPNVSPGAT [L21P]
Result block: 1.96

Query block: What about this variant? FVVALDDLHKMNHVTPPNVSLGAT [K3V]
Result block: 1.96

Query block: What about this variant? FVKALDDLHKMNHVLPPNVSLGAT [T15L]
Result block: 2.03
